- Test system: EKVX NSCLC
- method: NCI tumour cell line growth inhibition, 48 h
reportedEndpoint: TGI

- compound: "CCOC(=O)c1c2ccc(/C=C/c3ccccc3)ccc-2c(C(=O)OCC)c1N"
  reading: "> 100 µM"
- compound: "CC(C)(C)OC(=O)NC(CS(=O)(=O)O)C(=O)O (stereo unspecified)"
  reading: "> 100 µM"
- compound: "Cn1ccoc1=Nc1ccc(Cl)c(Cl)c1"
  reading: "> 10 µM"
- compound: "CC(C)COC(c1ccc2c(c1)OCO2)C(C)Br (stereo unspecified)"
  reading: "76 µM"
- compound: "C[C@H](c1ccccc1)N(CCC(=O)O)C(=O)CCN(C(=O)CCN(C(=O)CCN[C@H](C)c1ccccc1)[C@H](C)c1ccccc1)[C@H](C)c1ccccc1"
  reading: "> 100 µM"
- compound: "NCCNCCCNC(=O)c1cc(-c2ccccc2)nc2ccccc12"
  reading: "> 100 µM"
- compound: "C[N+]1(C)C[C@@H](O)C[C@@H]1C(=O)[O-]"
  reading: "> 100 µM"
- compound: "CCOC(=O)CC(NCc1ccc(N=Cc2nc3ccc(C(F)(F)F)cc3nc2-c2ccccc2)cc1)C(=O)OCC (stereo unspecified)"
  reading: "> 100 µM"

input: Fill in the blank: the reported TGI of "FC(F)(F)c1ccc(NCc2nc3ccccc3[nH]2)cc1" is ____.
output: > 100 µM

input: Item: "CCOC(=O)Nc1cc2c(c(N)n1)N=C(c1ccc3ccccc3c1)CN2"
output: > 100 µM

input: Item: COC(=O)N/N=C(/c1nc2ccc([N+](=O)[O-])cc2[nH]c1=O)C(O)c1ccc(OC)c(OC)c1 (stereo unspecified)
output: > 100 µM

input: Item: "CCOC(=O)CC(=O)CSc1c(-c2ccccc2)c(=O)n(-c2ccccc2)c(=S)n1-c1ccccc1"
output: > 100 µM

input: Item: "CSc1ccc(/C=C2\N=C(c3ccccc3)N(/N=C3\C(=O)Nc4ccccc43)C2=O)cc1"
output: > 100 µM

input: Item: "O=C1N=C(Nc2nc(-c3csc(NC4=NC(=O)/C(=C\c5ccc(Cl)cc5)S4)n3)cs2)S/C1=C/c1ccc(Cl)cc1"
output: > 50 µM

input: Item: "CCO[C@]12CCC[C@H]1[C@@H]1C(=O)c3ccccc3C(=O)C1=C(C)O2"
output: > 100 µM

input: Item: "O=C(c1ccco1)c1c(C(F)(F)F)n([O-])c2ccc(F)cc2[n+]1=O"
output: 8.09 µM

input: Item: "COc1ccc(C(=C2C(=O)N(c3ccccc3)C(=O)C2=C(C)C)c2ccc(OC)cc2)cc1"
output: > 24.4 µM

input: Item: "CC1(C)CC(N2CCN(C3CC(C)(C)NC(C)(C)C3)CC2)CC(C)(C)N1"
output: > 100 µM

input: Item: "Cc1c/c(=N/NC(=O)c2ccncc2)n2nc(N)sc2n1"
output: > 100 µM

input: Item: "Cc1nc2ccc(N)cc2[nH]c1=O"
output: > 100 µM

input: Item: "COc1ccc2c(c1)/C(=C\c1c(Cl)n(-c3ccccc3)c3ccccc13)C(=O)N2"
output: 57.5 µM
